Biological target: T1, Recombinant HLA-DRB1*1104 protein (human)
T1 chain 1: not shown
T1 chain 2: not shown
Conditions: remark: other sources report otherwise
# pIC50 annotations
By convention, pIC50 is the negative base-10 log of a molar concentration.

{"BINDER": "ENRSWYLTENIQRFLPNPAG [FVIII581-600 peptide]", "pIC50": 5.01}

Now look at this one.
The recorded pIC50 for entry ENIQRFLPNPAGVQLEDPEF [FVIII589-608 peptide] equals 4.23
